- System: ABUTH = Abutilon theophrasti
- PROTOCOL_TEXT: Post-emergence herbicidal activity, glasshouse pot test
- Format: in vivo
- Parameters: key: 5=total damage to plant; 0=no damage to plant
- MEASUREMENT_PARAMETERS: comparison of enantiomers, 62.5 g/Ha
VALUE_TYPE: ABUTH damage score (0-5)
// return just the number, without any unit appended

Task: Look up ABUTH damage score (0-5) for this compound: CCO[C@@H]1C(O)N(c2cc(C(C)(C)C)on2)C(=O)N1C (single isomer, unassigned)
Result: 5

Task: Look up ABUTH damage score (0-5) for this compound: CCO[C@H]1C(O)N(c2cc(C(C)(C)C)on2)C(=O)N1C (single isomer, unassigned) [A2 S-enantiomer, reference compound]
Result: 1

Task: Look up ABUTH damage score (0-5) for this compound: CO[C@@H]1C(O)N(c2cc(C(C)(C)C)on2)C(=O)N1C (stereo partly shown)
Result: 2

Task: Look up ABUTH damage score (0-5) for this compound: COC[C@H]1C(O)N(c2cc(C(C)(C)C)on2)C(=O)N1C (stereo partly drawn) [A4 S-enantiomer, reference compound]
Result: 0
